System: 935938-334-R-J1-PDC spheroids with HUVEC/MSC, viability
Experiment: Anticancer human tumor 935938-334-R-J1-PDC patient-derived small intestine adenocarcinoma cell line growth inhibition [PI3K]
Settings: second compound 0.1 µM; first compound 0.0949 µM; stronger effect = lower value
METRIC_NAME: viability, T/C (%)
The reply should contain only the number, in %.

935938-334-R-J1-PDC spheroids with HUVEC/MSC, viability / viability, T/C / Cn1cnc2c(F)c(Nc3ccc(Br)cc3Cl)c(C(=O)NOCCO)cc21 + CC(Nc1ncnc2nc[nH]c12)c1cc2cccc(Cl)c2c(=O)n1-c1ccccc1 : value?
47.4

Further cases:
935938-334-R-J1-PDC spheroids with HUVEC/MSC, viability / viability, T/C / Cn1cnc2c(F)c(Nc3ccc(Br)cc3Cl)c(C(=O)NOCCO)cc21 + Cc1nc(NC(=O)N2CCCC2C(N)=O)sc1-c1ccnc(C(C)(C)C(F)(F)F)c1 : value?
41.4

935938-334-R-J1-PDC spheroids with HUVEC/MSC, viability / viability, T/C / Cn1cnc2c(F)c(Nc3ccc(Br)cc3Cl)c(C(=O)NOCCO)cc21 + CC(Nc1ccc2c(c1)OCCn1cc(N3C(=O)OCC3C(F)F)nc1-2)C(N)=O : value?
39.7

935938-334-R-J1-PDC spheroids with HUVEC/MSC, viability / viability, T/C / Cn1cnc2c(F)c(Nc3ccc(Br)cc3Cl)c(C(=O)NOCCO)cc21 + COc1c(OCCCN2CCOCC2)ccc2c3n(c(=NC(=O)c4cnc(N)nc4)nc12)CCN3 : value?
20.9

----------
Form field: pIC50 (one value per entry).
Tested on: 935938-334-R-J1-PDC spheroids with HUVEC/MSC, viability
Test: Anticancer human tumor 935938-334-R-J1-PDC cell line growth inhibition [PI3K];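 note: compound exposure lasted seven days before viability was read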
Details: curve of first compound; second compound 10 µM
pIC50: −log10 of the molar value.

Look over these answered cases.
# input compound: CC1(C)CCC(Nc2ncc(C(F)(F)F)c(-c3c[nH]c4c(P(C)(C)=O)c(C#N)ccc34)n2)CN1 (stereo not drawn) + Cc1nc(NC(=O)N2CCCC2C(N)=O)sc1-c1ccnc(C(C)(C)C(F)(F)F)c1 ; wanted: its pIC50
> 7.50

# input compound: CC(C)n1nc(-c2ccc3oc(N)nc3c2)c2c(N)ncnc21 + Cc1nc(NC(=O)N2CCCC2C(N)=O)sc1-c1ccnc(C(C)(C)C(F)(F)F)c1 ; wanted: its pIC50
> 9.50

Now for a further compound.
# input compound: CC(C)NCC(C(=O)N1CCN(c2ncnc3c2C(C)CC3O)CC1)c1ccc(Cl)cc1 (stereo not drawn) + Cc1nc(NC(=O)N2CCCC2C(N)=O)sc1-c1ccnc(C(C)(C)C(F)(F)F)c1 ; wanted: its pIC50
6.48

----------
Tested on: 935938-334-R-J1-PDC spheroids with HUVEC/MSC, viability
Assay: Anticancer human tumor 935938-334-R-J1-PDC cell line growth inhibition [PI3K];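 note: compound exposure lasted seven days before viability was read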;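 for viability, T/C: percent of vehicle DMSO treated spheroid viability so 100% = untreated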
Details: second compound 0.1 µM; first compound 0.0316 µM; stronger effect = lower value
METRIC_NAME: viability, T/C (%)
The reply should contain only the number, in %.

Look over these answered cases.
# input compound: Cn1ncnc1[C@H]1c2n[nH]c(=O)c3cc(F)cc(c23)N[C@@H]1c1ccc(F)cc1 + CC(Nc1ncnc2nc[nH]c12)c1cc2cccc(Cl)c2c(=O)n1-c1ccccc1 ; wanted: its viability, T/C
85.1

# input compound: Cn1nccc1Nc1nccc(-c2ccn(C(CO)c3ccc(Cl)c(F)c3)c(=O)c2)n1 (stereo not given) + COc1c(OCCCN2CCOCC2)ccc2c3n(c(=NC(=O)c4cnc(N)nc4)nc12)CCN3 ; wanted: its viability, T/C
49.4

# input compound: C#Cc1c(F)ccc2cc(O)cc(-c3ncc4c(N5CC6CCC(C5)N6)nc(OCC56CCCN5CC(F)C6)nc4c3F)c12 (stereo not given) + CC(Nc1ncnc2nc[nH]c12)c1cc2cccc(Cl)c2c(=O)n1-c1ccccc1 ; wanted: its viability, T/C
99.4

Further cases:
# input compound: CC(Cn1ccc(-c2ccc(C#N)c(Cl)c2)n1)NC(=O)c1cc(C(C)O)[nH]n1 (stereo not given) + CC(Nc1ncnc2nc[nH]c12)c1cc2cccc(Cl)c2c(=O)n1-c1ccccc1 ; wanted: its viability, T/C
124

# input compound: CCCS(=O)(=O)Nc1ccc(F)c(C(=O)c2c[nH]c3ncc(-c4ccc(Cl)cc4)cc23)c1F + CC(Nc1ccc2c(c1)OCCn1cc(N3C(=O)OCC3C(F)F)nc1-2)C(N)=O ; wanted: its viability, T/C
93.6

----------
Tested on: 935938-334-R-J1-PDC spheroids with HUVEC/MSC, viability
Assay: Anticancer human tumor 935938-334-R-J1-PDC cell line growth inhibition [PI3K];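 note: compound exposure lasted seven days before viability was read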;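 for viability, T/C: percent of vehicle DMSO treated spheroid viability so 100% = untreated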
Conditions: second compound 0.316 µM; first compound 1 µM; stronger effect = lower value
Excerpt: Combinatorial screen of targeted agents with the PI3K inhibitors inavolisib, alpelisib, duvelisib, and copanlisib in multi-cell type tumor spheroids A high-throughput screen of multi-cell type tumor spheroids was designed to identify active combinations of targeted small molecules and PI3K pathway inhibitors. […] Compounds. […] If the clinical Cmax for an agent had not been determined, the highest concentration tested was 10 microM. […]
Please use fulfilled for viability, T/C under 60% and not fulfilled for everything else, ties included.

Solved entries:
Determine whether this compound shows viability, T/C lower than 60% (ties excluded): CC(C)NCC(C(=O)N1CCN(c2ncnc3c2C(C)CC3O)CC1)c1ccc(Cl)cc1 (stereo unspecified) + Cc1nc(NC(=O)N2CCCC2C(N)=O)sc1-c1ccnc(C(C)(C)C(F)(F)F)c1
fulfilled

Determine whether this compound shows viability, T/C lower than 60% (ties excluded): CC(Cn1ccc(-c2ccc(C#N)c(Cl)c2)n1)NC(=O)c1cc(C(C)O)[nH]n1 (stereo unspecified) + CC(Nc1ccc2c(c1)OCCn1cc(N3C(=O)OCC3C(F)F)nc1-2)C(N)=O
not fulfilled

Determine whether this compound shows viability, T/C lower than 60% (ties excluded): Cn1nccc1Nc1nccc(-c2ccn(C(CO)c3ccc(Cl)c(F)c3)c(=O)c2)n1 (stereo unspecified) + COc1c(OCCCN2CCOCC2)ccc2c3n(c(=NC(=O)c4cnc(N)nc4)nc12)CCN3
fulfilled

Lab note: next compound to report on.
Determine whether this compound shows viability, T/C lower than 60% (ties excluded): CC1(C)CCC(CN2CCN(c3ccc(C(=O)NS(=O)(=O)c4ccc(NCC5CCOCC5)c([N+](=O)[O-])c4)c(Oc4cnc5[nH]ccc5c4)c3)CC2)=C(c2ccc(Cl)cc2)C1 + Cc1nc(NC(=O)N2CCCC2C(N)=O)sc1-c1ccnc(C(C)(C)C(F)(F)F)c1
fulfilled

----------
System: 935938-334-R-J1-PDC spheroids with HUVEC/MSC, viability
Assay: Anticancer human tumor 935938-334-R-J1-PDC cell line growth inhibition [PI3K];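 note: compound exposure lasted seven days before viability was read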;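 for viability, T/C: percent of vehicle DMSO treated spheroid viability so 100% = untreated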
Conditions: second compound 0.316 µM; first compound 0.001 µM; stronger effect = lower value
METRIC_NAME: viability, T/C (%)
The reply should contain only the number, in %.

Look over these answered cases.
# input compound: Cn1ncnc1[C@H]1c2n[nH]c(=O)c3cc(F)cc(c23)N[C@@H]1c1ccc(F)cc1 + CC(Nc1ncnc2nc[nH]c12)c1cc2cccc(Cl)c2c(=O)n1-c1ccccc1 ; wanted: its viability, T/C
85.4

# input compound: CC(=O)c1c(C)c2cnc(Nc3ccc(N4CCNCC4)cn3)nc2n(C2CCCC2)c1=O + COc1c(OCCCN2CCOCC2)ccc2c3n(c(=NC(=O)c4cnc(N)nc4)nc12)CCN3 ; wanted: its viability, T/C
32.6

# input compound: CC(C)n1nc(-c2ccc3oc(N)nc3c2)c2c(N)ncnc21 + Cc1nc(NC(=O)N2CCCC2C(N)=O)sc1-c1ccnc(C(C)(C)C(F)(F)F)c1 ; wanted: its viability, T/C
72.2

Further cases:
# input compound: Cn1ncnc1[C@H]1c2n[nH]c(=O)c3cc(F)cc(c23)N[C@@H]1c1ccc(F)cc1 + Cc1nc(NC(=O)N2CCCC2C(N)=O)sc1-c1ccnc(C(C)(C)C(F)(F)F)c1 ; wanted: its viability, T/C
67.3

# input compound: CC(C)n1nc(-c2ccc3oc(N)nc3c2)c2c(N)ncnc21 + COc1c(OCCCN2CCOCC2)ccc2c3n(c(=NC(=O)c4cnc(N)nc4)nc12)CCN3 ; wanted: its viability, T/C
38.9

# input compound: CC(C)n1nc(-c2ccc3oc(N)nc3c2)c2c(N)ncnc21 + CC(Nc1ncnc2nc[nH]c12)c1cc2cccc(Cl)c2c(=O)n1-c1ccccc1 ; wanted: its viability, T/C
85.6

# input compound: CC(=O)c1c(C)c2cnc(Nc3ccc(N4CCNCC4)cn3)nc2n(C2CCCC2)c1=O + Cc1nc(NC(=O)N2CCCC2C(N)=O)sc1-c1ccnc(C(C)(C)C(F)(F)F)c1 ; wanted: its viability, T/C
75

----------
Tested on: 935938-334-R-J1-PDC spheroids with HUVEC/MSC, viability
Assay: Anticancer human tumor 935938-334-R-J1-PDC cell line growth inhibition [PI3K];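 note: compound exposure lasted seven days before viability was read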
Details: curve of first compound; second compound 0.1 µM
Form field: pIC50 (one value per entry).
Scale for pIC50: -log10 of concentration given in mol/L; no unit attached.

# input molecule: CC(=O)c1c(C)c2cnc(Nc3ccc(N4CCNCC4)cn3)nc2n(C2CCCC2)c1=O + CC(Nc1ccc2c(c1)OCCn1cc(N3C(=O)OCC3C(F)F)nc1-2)C(N)=O ; wanted: its pIC50
7.33

# input molecule: Cn1ncnc1[C@H]1c2n[nH]c(=O)c3cc(F)cc(c23)N[C@@H]1c1ccc(F)cc1 + COc1c(OCCCN2CCOCC2)ccc2c3n(c(=NC(=O)c4cnc(N)nc4)nc12)CCN3 ; wanted: its pIC50
8.08

# input molecule: C#Cc1c(F)ccc2cc(O)cc(-c3ncc4c(N5CC6CCC(C5)N6)nc(OCC56CCCN5CC(F)C6)nc4c3F)c12 (stereo unspecified) + Cc1nc(NC(=O)N2CCCC2C(N)=O)sc1-c1ccnc(C(C)(C)C(F)(F)F)c1 ; wanted: its pIC50
5.73

# input molecule: CC(Cn1ccc(-c2ccc(C#N)c(Cl)c2)n1)NC(=O)c1cc(C(C)O)[nH]n1 (stereo unspecified) + COc1c(OCCCN2CCOCC2)ccc2c3n(c(=NC(=O)c4cnc(N)nc4)nc12)CCN3 ; wanted: its pIC50
5.99

# input molecule: Cn1ncc(Cl)c1-c1cc(C(=O)NC(CN)Cc2cccc(F)c2)sc1Cl (stereo unspecified) + Cc1nc(NC(=O)N2CCCC2C(N)=O)sc1-c1ccnc(C(C)(C)C(F)(F)F)c1 ; wanted: its pIC50
6.13

Further cases:
# input molecule: CC(C)n1nc(-c2ccc3oc(N)nc3c2)c2c(N)ncnc21 + CC(Nc1ccc2c(c1)OCCn1cc(N3C(=O)OCC3C(F)F)nc1-2)C(N)=O ; wanted: its pIC50
7.36

# input molecule: CC(C)NCC(C(=O)N1CCN(c2ncnc3c2C(C)CC3O)CC1)c1ccc(Cl)cc1 (stereo unspecified) + CC(Nc1ccc2c(c1)OCCn1cc(N3C(=O)OCC3C(F)F)nc1-2)C(N)=O ; wanted: its pIC50
6.19
